Entries and their IC50 (µg/mL), pseudovirus neutralization values follow.
Molecular target: HIV-1 IAVI-C18 Env (pseudovirus) (HIV-1 isolate IAVI-C18)
Test: cell-based or functional assay
readout label: IC50 (µg/mL), pseudovirus neutralization

binder: 1443_C16 (PG16) (TCN-116) (antibody, V domains shown) VH: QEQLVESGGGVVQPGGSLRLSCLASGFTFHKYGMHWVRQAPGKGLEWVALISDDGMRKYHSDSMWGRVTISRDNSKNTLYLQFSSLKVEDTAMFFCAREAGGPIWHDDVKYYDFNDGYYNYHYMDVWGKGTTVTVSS VL: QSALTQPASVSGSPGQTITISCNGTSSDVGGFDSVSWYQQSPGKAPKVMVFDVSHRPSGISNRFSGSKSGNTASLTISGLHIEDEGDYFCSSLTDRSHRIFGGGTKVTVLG
sign: =
test result: 0.007

binder: 1495_C14 (PGC14) (antibody, human IgG1, lambda, V domains shown) VH: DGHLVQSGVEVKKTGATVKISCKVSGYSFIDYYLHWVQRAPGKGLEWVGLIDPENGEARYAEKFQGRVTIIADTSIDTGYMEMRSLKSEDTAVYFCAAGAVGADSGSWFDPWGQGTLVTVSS VL: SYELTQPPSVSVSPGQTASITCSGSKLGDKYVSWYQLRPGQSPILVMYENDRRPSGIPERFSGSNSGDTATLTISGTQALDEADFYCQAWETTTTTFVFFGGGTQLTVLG
sign: >
test result: 50

binder: 1496_C09 (PG9) (TCN-109) (antibody, V domains shown) VH: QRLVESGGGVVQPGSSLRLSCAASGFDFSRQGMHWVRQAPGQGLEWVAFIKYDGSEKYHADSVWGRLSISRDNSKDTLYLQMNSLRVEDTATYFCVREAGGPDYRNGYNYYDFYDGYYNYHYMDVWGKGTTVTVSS VL: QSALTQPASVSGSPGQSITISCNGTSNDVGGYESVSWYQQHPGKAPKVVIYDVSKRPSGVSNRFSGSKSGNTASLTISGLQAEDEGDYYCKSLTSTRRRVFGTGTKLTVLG
sign: =
test result: 0.05

binder: 1456_P20 (PG20) (antibody, human IgG1, kappa, V domains shown) VH: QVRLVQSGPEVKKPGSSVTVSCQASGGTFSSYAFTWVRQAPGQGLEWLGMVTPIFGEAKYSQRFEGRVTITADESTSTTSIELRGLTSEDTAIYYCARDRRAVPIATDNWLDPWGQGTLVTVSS VL: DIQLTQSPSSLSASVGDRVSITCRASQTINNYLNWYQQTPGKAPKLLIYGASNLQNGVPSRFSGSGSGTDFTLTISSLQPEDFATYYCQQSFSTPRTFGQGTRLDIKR
sign: >
test result: 50

binder: 1460_G14 (PGG14) (antibody, human IgG1, kappa, V domains shown) VH: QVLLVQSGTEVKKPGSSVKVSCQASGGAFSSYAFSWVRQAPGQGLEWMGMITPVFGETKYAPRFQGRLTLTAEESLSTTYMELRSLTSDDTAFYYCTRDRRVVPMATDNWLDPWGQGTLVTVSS VL: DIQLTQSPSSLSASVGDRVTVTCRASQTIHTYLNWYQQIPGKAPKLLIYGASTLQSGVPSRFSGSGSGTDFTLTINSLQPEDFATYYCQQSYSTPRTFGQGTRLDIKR
sign: >
test result: 50
